experiment: in vivo; settings: ICR, mouse, in vivo, iv, 3 mg/kg
Description: Clearance in ICR mouse plasma at 3 mg/kg, iv by LC/MS/MS analysis
reported_metric: clearance (mL/min/kg)
Answers are plain numbers, in mL/min/kg.

## Input Dear colleague, I am looking for the recorded clearance of the following compound: COc1ncc(-c2cc(OC3CCOCC3)c3nc(N)nc(C)c3c2)cc1NS(=O)(=O)c1ccc(F)cc1F
## Output 7.58

---

Please consider the recorded pIC50 for UniProtKB P33261 in what follows.
Sequence (P33261 whole entry): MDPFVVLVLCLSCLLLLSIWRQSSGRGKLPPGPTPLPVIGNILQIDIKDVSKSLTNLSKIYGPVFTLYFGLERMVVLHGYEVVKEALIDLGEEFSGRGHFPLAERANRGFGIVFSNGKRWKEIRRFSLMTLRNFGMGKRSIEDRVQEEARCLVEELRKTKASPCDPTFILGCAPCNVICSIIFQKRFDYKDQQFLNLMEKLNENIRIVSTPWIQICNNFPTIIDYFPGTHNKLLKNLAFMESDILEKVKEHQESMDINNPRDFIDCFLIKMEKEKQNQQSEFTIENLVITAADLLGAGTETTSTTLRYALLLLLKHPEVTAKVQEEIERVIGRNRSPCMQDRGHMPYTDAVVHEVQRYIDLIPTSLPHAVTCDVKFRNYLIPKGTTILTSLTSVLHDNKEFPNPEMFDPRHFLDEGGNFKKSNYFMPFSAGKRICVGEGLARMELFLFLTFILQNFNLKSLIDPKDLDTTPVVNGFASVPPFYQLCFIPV
pIC50: −log10 of the molar value.

The following molecules each have a reported value; give each one's pIC50.
1. COc1ncc(-c2cc(O[C@@H]3CCOC3)c3nc(N)nc(C)c3c2)cc1NS(=O)(=O)c1ccc(F)cc1F
2. CNc1nc(C)c2cc(-c3cnc(OC)c(NS(=O)(=O)c4ccc(F)cc4F)c3)cc(OC3CCOCC3)c2n1
3. CNc1nc(C)c2cc(-c3cnc(OC)c(NS(=O)(=O)c4ccc(F)cc4F)c3)cc(O[C@@H]3CCOC3)c2n1

## Output
1. < 5.00
2. < 5.00
3. < 5.00
